measured.quantity: melting point

[[record]]
molecule = "COc1cc(C2OC(c3cc(OC)c(OC)c(OC)c3)=NN2C(C)=O)cc(Br)c1O (centres unmarked) [Compound 36]"
measured_quantity = "melting point"
reported_measurement = "177 to 179 °C"

[[record]]
molecule = "COc1cc(C(=O)N/N=C/c2cnc[nH]2)cc(OC)c1OC [Compound 17]"
measured_quantity = "melting point"
reported_measurement = "230 to 231 °C"

[[record]]
molecule = "COc1cc(C(=O)N/N=C/c2ccc(Br)cc2O)cc(OC)c1OC [Compound 26]"
measured_quantity = "melting point"
reported_measurement = "206 to 208 °C"

[[record]]
molecule = "COc1cc(C2OC(c3cc(OC)c(OC)c(OC)c3)=NN2C(C)=O)ccc1O (centres unmarked) [Compound 37]"
measured_quantity = "melting point"
reported_measurement = "170 to 172 °C"

[[record]]
molecule = "COc1cc(/C=N/NC(=O)c2cc(OC)c(OC)c(OC)c2)cc(I)c1O [Compound 05]"
measured_quantity = "melting point"
reported_measurement = "247 to 248 °C"

[[record]]
molecule = "COc1cc(C2=NN(C(C)=O)C(c3cccc4ccccc34)O2)cc(OC)c1OC (centres unmarked) [Compound 38]"
measured_quantity = "melting point"
reported_measurement = "189 to 192 °C"

[[record]]
molecule = "COc1cc(C(=O)N/N=C/c2ccc(Cl)c(C(F)(F)F)c2)cc(OC)c1OC [Compound 29]"
measured_quantity = "melting point"
reported_measurement = "203 to 204 °C"

[[record]]
molecule = "COc1cccc(OC)c1/C=N/NC(=O)c1cc(OC)c(OC)c(OC)c1 [Compound 21]"
measured_quantity = "melting point"
reported_measurement = "245 to 246 °C"

